Can you tell me Inhibition for the items I'm about to list?
Tested on: Rattus norvegicus
Experiment notes: Evaluated for the duration of cytoprotective effect, in Ethanol-Necrosis model, that causes inhibition of ulceration. Absolute ethanol was administered at 4 hr after dosing
Type: functional
Parameters: concentration or dose not given beside the values
One number for each entry, in %.

Please give Inhibition for each item listed below.
1. CC1(c2ccccc2)OC(/C=C/c2ccncc2)=CC1=O (stereo not drawn)
2. CC(=O)c1ccc2c(c1)C(=O)C1(CC1)O2 [SPIZOFURONE]
3. CC1(C)OC(/C=C/c2ccc(F)cc2F)=CC1=O
4. CC1(C)OC(/C=C/c2ccc(F)cc2)=CC1=O
5. CC1(c2ccccc2)OC(/C=C/c2ccccn2)=CC1=O (stereo not drawn)
6. CC1(C)OC(/C=C/c2ccc(Cl)cc2)=CC1=O
7. CC1(C)OC(/C=C/c2cccnc2)=CC1=O
8. CC1(C)OC(/C=C/c2ccccn2)=CC1=O

[31, 72, 42, 61, 28, 51, 43, 67]
